Assay: differential killing of epithelial or mesenchymal cells, primary screen, imaging, PC-3E GFP, TEM4-18 mCherry, co-culture (AID 1345086);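 note: normalised mesenchymal count divided by normalised epithelial count so high means epithelial killing; cells exposed to compound for 72 h before imaging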
Conditions: imaging cell counts, at 1 µM, actives lie on both sides, counts scaled to control wells, 1 = unselective
Please use Met for red/green cell ratio (normalised) under 1 and Not met for everything else, ties included.

Prompt: Threshold test, red/green cell ratio (normalised) < 1: `C/C(=C\CO)CC[C@H](C)CCC[C@H](C)CCCC(C)C`
Completion: Not met

Prompt: Now this one: C[C@@H]1CC2C3C[C@H](F)C4=CC(=O)C=C[C@]4(C)[C@@]3(F)[C@@H](O)C[C@]2(C)[C@@]1(O)C(=O)COC(=O)C(C)(C)C (some centres undefined)
Completion: Not met

Prompt: // same read-out, input: C#C[C@]1(O)CCC2C3CCC4=CC(=O)CC[C@@H]4C3CC[C@@]21CC (some centres undefined)
Completion: Not met
